system: MDA-MB-468 breast; assay: NCI-60 one-dose screen, 48 h (100 = growth as untreated, 0 = no growth, -100 = all killed); conditions: 10 µM unless noted
This is part of a sample that, as a whole, favours compounds with a hit. Of some 83,000 tested, about 20% had one in any assay.
Field 'label' (enum: true (1) / false (0)). Set to true (1) when growth is strictly under 40%; else false (0).

Problem: Find out if reported growth for C=C[Se]CC(=O)/C=C/c1ccccc1 is less than 40%
Solution: false (0)

Problem: Consider CN(C)C(=O)Oc1ccc(Br)cc1 . Does its growth lie strictly below 40%?
Solution: false (0)

Problem: # TODO verify growth < 40% strictly for this compound: C=C=[CH][Sn]([c]1ccccc1)([c]1ccccc1)[c]1ccccc1
Solution: true (1)

Problem: Given the entry O=C(O)C(Br)CBr (stereo not given) , would its reported growth be below 40%?
Solution: false (0)

Problem: Consider CC(C)CCC(=O)O[C@H]1CC[C@H]2[C@@H]3CCC4=CC(=O)CC[C@]4(C)[C@H]3CC[C@]12C . Does its growth lie strictly below 40%?
Solution: false (0)

Problem: Say whether its growth is strictly beneath 40%. Entry: Cc1ccc(C(=O)OC(C(=O)O)C(OC(=O)c2ccc(C)cc2)C(=O)O)cc1 (stereo not given) (tested in a mixture with another compound)
Solution: true (1)

Problem: growth under 40%? Item: O=C(N/N=C/c1ccc(N(CCCl)CCCl)cc1)c1cc(=O)[nH]c(=O)[nH]1
Solution: true (1)

Problem: Here's an entry: CC[C@H](C)[C@H](NC(=O)C12C3C4C1C1C2C3C41NC)C(=O)N(C)[C@H](C[C@@H](OC(C)=O)c1nc(C(=O)N[C@@H](Cc2ccccc2)C[C@H](C)C(=O)OC)cs1)C(C)C (stereo not given in full) . Is its growth below 40%?
Solution: true (1)

Problem: Here's an entry: Cc1nnc([S-])o1.[Au+].c1ccc([PH+](c2ccccc2)c2ccccc2)cc1 . Is its growth below 40%?
Solution: true (1)

Problem: growth under 40%? Item: C1CNC2CCCC2C1 (stereo not given)
Solution: false (0)

Problem: Does COC(=O)C1CCC(NC(=O)c2csc([C@@H](C[C@H](C(C)C)N(C)C(=O)[C@@H](NC(=O)[C@H]3CCCCN3C)C(C)C)OC(C)=O)n2)CC1 (stereo not given in full) have growth strictly under 40%?
Solution: true (1)

Problem: hey, is growth for CC(C)(NC(=O)c1nn(CCCCCF)c2ccccc12)c1ccccc1 lower than 40% or not?
Solution: false (0)

Problem: Determine if COC[CH2][Hg][C]#[C][Hg][CH2]COC shows growth strictly lower than 40%.
Solution: false (0)

Problem: Report whether reported growth is lower than 40% (strictly) for O=C1NC(=O)C(Cc2ccccc2)(Cc2ccccc2)C(=O)N1
Solution: false (0)

Problem: Just wondering, is growth of C/C(=C\c1cc(C(F)(F)F)n(-c2ccc(N)cc2)n1)[C@@H]1C[C@@H]2O[C@]2(C)CCC[C@H](C)[C@H](O)[C@@H](C)C(=O)C(C)(C)[C@@H](O)CC(=O)O1 below 40%?
Solution: true (1)

Problem: For [Cl][Hg][c]1ccc(Cl)s1 , is the recorded growth below the cut-off of 40%?
Solution: true (1)

Problem: Would you kindly verify if growth of N#CCc1ccccc1 is strictly less than 40%?
Solution: false (0)

Problem: State whether 40% exceeds growth recorded for Cc1ccc(C(=O)NCCCOc2ccc(N3C(N)=NC(N)=NC3(C)C)cc2Cl)cc1S(=O)(=O)F .
Solution: false (0)

Problem: # check: growth < 40% for C#CC1(O)CCC(C(C)(C)C)CC1 (stereo not given)
Solution: false (0)

Problem: In plain terms, does CN1CCC(O)(c2ccc(F)cc2)C(C(=O)c2ccc(F)cc2)C1 (stereo not given) come in under 40% for growth?
Solution: false (0)

Problem: Report whether reported growth is lower than 40% (strictly) for CCOC(=O)CCC(NC(=O)C(Cc1ccc(N(CCCl)CCCl)cc1)NC=O)C(=O)OCC (stereo not given)
Solution: true (1)

Problem: Report whether reported growth is lower than 40% (strictly) for Oc1cc(N2CC2)c(O)cc1N1CC1
Solution: true (1)

Problem: Is the reported growth for O=C(c1cccs1)C1NO[N+]([O-])=C1c1cccs1 (stereo not given) strictly below 40%?
Solution: true (1)

Problem: Field: below-cutoff. Rule: recorded growth strictly less than 40%. Subject: CC[C@H](C)[C@H](NC(=O)C12CC(NC(C)=O)(C1)C2)C(=O)N(C)[C@H](C[C@@H](OC(C)=O)c1nc(C(=O)N[C@@H](Cc2ccccc2)C[C@H](C)C(=O)OC)cs1)C(C)C
Solution: true (1)

Problem: Take the compound CCCCNCCc1ccccn1 and say whether its growth is less than 40%.
Solution: false (0)

Problem: Does the reported growth of CC(=O)N1N=C(c2ccccc2)CC1c1sc(N(CCCl)CCCl)nc1Cl (stereo not given) stay below 40%?
Solution: false (0)

Problem: Bench note: check whether c1cnc2c(c1)ccc1ncccc12 shows growth below 40%
Solution: false (0)

Problem: Item c1cc2c(c3c1CCNC3)OCO2 : growth beneath 40%, strictly?
Solution: false (0)

Problem: Answer whether the compound [O-][n+]1ccccc1S has growth strictly less than 40%
Solution: false (0)

Problem: Regarding COc1ccc(C(=O)c2cc(OC)c(OC)c(OC)c2)cc1OC(C)=O , kindly confirm whether its growth is beneath 40%.
Solution: false (0)

Problem: Regarding O=C1C=Cc2ccccc2C1=O , kindly confirm whether its growth is beneath 40%.
Solution: false (0)

Problem: Identify whether the compound CC(C)=CCc1c2c(c(O)c3c1O[C@]14C(=C[C@@H]5C[C@H]1C(C)(C)O[C@@]4(C/C=C(/C)C(=O)O)C5=O)C3=O)C=CC(C)(C)O2 records growth below 40%.
Solution: true (1)

Problem: Strictly below 40% in growth? Cc1ccc2oc(=O)c3c(c2c1)OC(N)=C(C#N)C3c1ccco1 (stereo not given)
Solution: false (0)

Problem: Is the reported growth for C=CC[Se]C(=O)c1ccccc1OC(C)=O strictly below 40%?
Solution: true (1)

Problem: growth strictly < 40% for this compound? n1nc(-c2nonc2-c2nn[nH]n2)n[nH]1
Solution: false (0)

Problem: I'd appreciate it if you could check whether CC1(C)CC(=O)CC(C)(C)N1N=O has growth smaller than 40%.
Solution: false (0)

Problem: Confirm or reject: growth of C/C1=C/C(=O)O[C@@H]2C[C@@H](CC[C@H](C)/C=C\C=C\CC1)O[C@@](OCCc1ccccc1)([C@@H]1CSC(=O)N1)C2 lies strictly below 40%
Solution: true (1)

Problem: Regarding COC(=O)C12CC(NC(=O)c3csc([C@@H](C[C@H](C(C)C)N(C)C(=O)[C@@H](NC(=O)[C@H]4CCCCN4C)C(C)C)OC(C)=O)n3)(C1)C2 , kindly confirm whether its growth is beneath 40%.
Solution: false (0)

Problem: Is growth of Cc1ccc(C[As+](c2ccccc2)(c2ccccc2)c2ccccc2)cc1 strictly below 40%?
Solution: true (1)

Problem: Given the entry CC[C@H](C)[C@H](NC(=O)c1cnccn1)C(=O)N(C)[C@H](C[C@@H](OC(C)=O)c1nc(C(=O)N[C@@H](Cc2ccccc2)C[C@H](C)C(=O)OC)cs1)C(C)C , would its reported growth be below 40%?
Solution: true (1)

Origin of the recorded values: PubChem BioAssay (NCI)
